Cited source for all entries: ChEMBL document CHEMBL1909294

The following compounds each carry a recorded HepSE_Combined Scores for Hepatotoxicity.
Reply: number alone, nothing else.

compound: CO[C@]12CC[C@@]3(C[C@@H]1[C@](C)(O)C(C)(C)C)[C@H]1Cc4ccc(O)c5c4[C@@]3(CCN1CC1CC1)[C@H]2O5 [BUPRENORPHINE]
system: Hepatotoxicity
HepSE_Combined Scores: 0

Input: Give recorded HepSE_Combined Scores with Hepatotoxicity for the following compound: C[C@@H](O)[C@H]1C(=O)N2C(C(=O)O)=C(S[C@@H]3CN[C@H](C(=O)Nc4cccc(C(=O)O)c4)C3)[C@H](C)[C@H]12
Output: 4

Input: Similarly, C#Cc1cccc(Nc2ncnc3cc(OCCOC)c(OCCOC)cc23)c1 [ERLOTINIB] ?
Output: 2

Input: Similarly, Nc1nc2ncc(CNc3ccc(C(=O)N[C@@H](CCC(=O)O)C(=O)O)cc3)nc2c(=O)[nH]1 [FOLIC ACID] ?
Output: 0

Input: Similarly, Nc1nc(N)c2nc(-c3ccccc3)c(N)nc2n1 ?
Output: 1

Input: Similarly, C[C@H](Cn1cnc2c(N)ncnc21)OCP(=O)(O)O [TENOFOVIR ANHYDROUS] ?
Output: 2

Input: Similarly, CC(C)(C)NCC(O)COc1cccc2c1CC(O)C(O)C2 (stereo not given) [NADOLOL] ?
Output: 0

Input: Similarly, CCCCCCCN(CC)CCCC(O)c1ccc(NS(C)(=O)=O)cc1 (stereo not given) [IBUTILIDE] ?
Output: 1

Input: Similarly, CCOCCn1c(N2CCCN(C)CC2)nc2ccccc21 [EMEDASTINE] ?
Output: 0

Input: Similarly, O=C1CN(/N=C/c2ccc(-c3ccc([N+](=O)[O-])cc3)o2)C(O)=N1 [DANTROLENE] ?
Output: 2

----------
The following molecules each carry a recorded HepSE_hepatic failure for Hepatotoxicity.
Reply: number alone, nothing else.

Sample records with HepSE_hepatic failure:
molecule: C=CCN1CC[C@]23c4c5ccc(O)c4O[C@H]2C(=O)CC[C@@]3(O)[C@H]1C5
system: Hepatotoxicity
HepSE_hepatic failure: 0
--
molecule: CCOC(=O)[C@H](CCc1ccccc1)N[C@@H](C)C(=O)N1[C@H](C(=O)O)C[C@@H]2CCC[C@@H]21
system: Hepatotoxicity
HepSE_hepatic failure: 1
--
molecule: NC(=O)N1c2ccccc2C=Cc2ccccc21 [CARBAMAZEPINE]
system: Hepatotoxicity
HepSE_hepatic failure: 1
--
molecule: C[N+](C)(C)CCOC(N)=O.[Cl-]
system: Hepatotoxicity
HepSE_hepatic failure: 0
--
molecule: C=C1[C@H](CO)[C@@H](O)C[C@@H]1n1cnc2c(=O)[nH]c(N)nc21.O
system: Hepatotoxicity
HepSE_hepatic failure: 0

Input: Give recorded HepSE_hepatic failure with Hepatotoxicity for the following molecule: O=c1[nH]c2ccccc2n1C1CCN(CCCC(c2ccc(F)cc2)c2ccc(F)cc2)CC1 [PIMOZIDE]
Output: 0

----------
Test system: Hepatotoxicity
measured.attribute: HepSE_hepatic failure
Reply: number alone, nothing else.

Sample records with HepSE_hepatic failure:
compound: COc1c(N2C[C@@H]3CCCN[C@@H]3C2)c(F)cc2c(=O)c(C(=O)O)cn(C3CC3)c12
HepSE_hepatic failure: 1
--
compound: C[C@]1(O)CC[C@H]2[C@@H]3CCC4=CC(=O)CC[C@]4(C)[C@@]3(F)[C@@H](O)C[C@@]21C
HepSE_hepatic failure: 0
--
compound: Nc1nc2c(ncn2CCC(CO)CO)c(=O)[nH]1
HepSE_hepatic failure: 0
--
compound: C[C@@H](CN1CC(=O)NC(=O)C1)N1CC(=O)NC(=O)C1
HepSE_hepatic failure: 0
--
compound: COc1ccccc1OCCNCC(O)COc1cccc2[nH]c3ccccc3c12 (centres undefined)
HepSE_hepatic failure: 0

Read the next record carefully.
Input: Give recorded HepSE_hepatic failure with Hepatotoxicity for the following compound: CCCCCOC(=O)Nc1nc(=O)n([C@@H]2O[C@H](C)[C@@H](O)[C@H]2O)cc1F
Output: 1

----------
The following molecules each carry a recorded HepSE_hepatitis for Hepatotoxicity.
Reply: number alone, nothing else.

molecule: CC1=C(/C=C/C(C)=C/C=C/C(C)=C/C(=O)O)C(C)(C)CCC1
system: Hepatotoxicity
observed: 1
--
molecule: COc1ccnc(C[S+]([O-])c2nc3ccc(OC(F)F)cc3[nH]2)c1OC (stereo not given)
system: Hepatotoxicity
observed: 1
--
molecule: CC1(C)O[C@@H]2C[C@H]3[C@@H]4CCC5=CC(=O)C=C[C@]5(C)[C@H]4[C@@H](O)C[C@]3(C)[C@]2(C(=O)CO)O1 [DESONIDE]
system: Hepatotoxicity
observed: 0
--
molecule: CC(C)(C)NC(=O)[C@@H]1CN(Cc2cccnc2)CCN1C[C@@H](O)C[C@@H](Cc1ccccc1)C(=O)N[C@H]1c2ccccc2C[C@H]1O.O
system: Hepatotoxicity
observed: 1
--
molecule: CCC(=O)O[C@@H](O[P@](=O)(CCCCc1ccccc1)CC(=O)N1C[C@H](C2CCCCC2)C[C@H]1C(=O)O)C(C)C
system: Hepatotoxicity
observed: 1
--
molecule: CCCC(=O)Nc1ccc(OCC(O)CNC(C)C)c(C(C)=O)c1 (stereo not given)
system: Hepatotoxicity
observed: 0
--
molecule: Nc1nc(F)nc2c1ncn2[C@@H]1O[C@H](CO)[C@@H](O)[C@@H]1O
system: Hepatotoxicity
observed: 0
--
molecule: CO[C@@]1(NC(=O)C2SC(=C(C(N)=O)C(=O)O)S2)C(=O)N2C(C(=O)O)=C(CSc3nnnn3C)CS[C@@H]21 (stereo not given in full)
system: Hepatotoxicity
observed: 0
--
molecule: C[C@@H]1C[C@H]2[C@@H]3CCC4=CC(=O)C=C[C@]4(C)[C@@]3(Cl)[C@@H](O)C[C@]2(C)[C@@]1(O)C(=O)CCl
system: Hepatotoxicity
observed: 0
--
molecule: CC(C)N(CCC(C(N)=O)(c1ccccc1)c1ccccn1)C(C)C (stereo not given) [DISOPYRAMIDE]
system: Hepatotoxicity
observed: 0

Input: Could you share which HepSE_hepatitis value was measured for CCNC(=O)[C@@H]1CCCN1C(=O)[C@H](CCCNC(=N)N)NC(=O)[C@H](CC(C)C)NC(=O)[C@@H](COC(C)(C)C)NC(=O)[C@H](Cc1ccc(O)cc1)NC(=O)[C@H](CO)NC(=O)[C@H](Cc1c[nH]c2ccccc12)NC(=O)[C@H](Cc1cnc[nH]1)NC(=O)[C@@H]1CCC(=O)N1 ?
Output: 0

----------
System: Hepatotoxicity
HepSE_hepatic failure reference
Reply: number alone, nothing else.

Sample records with HepSE_hepatic failure:
molecule: CN1C[C@H](C(=O)N[C@]2(C)O[C@@]3(O)[C@@H]4CCCN4C(=O)[C@H](Cc4ccccc4)N3C2=O)C=C2c3cccc4[nH]cc(c34)C[C@H]21 [ERGOTAMINE]
observed: 0

molecule: Nc1nc(=O)[nH]cc1F [FLUCYTOSINE]
observed: 0

molecule: Nc1cccc2c1CN(C1CCC(=O)NC1=O)C2=O (stereo unspecified) [LENALIDOMIDE]
observed: 1

molecule: CN1CCN(CCCN2c3ccccc3Sc3ccc(Cl)cc32)CC1 [PROCHLORPERAZINE]
observed: 0

molecule: CCCc1nc(C(C)(C)O)c(C(=O)OCc2oc(=O)oc2C)n1Cc1ccc(-c2ccccc2-c2nnn[nH]2)cc1 [OLMESARTAN MEDOXOMIL]
observed: 0

Read the next record carefully.
Input: Could you share which HepSE_hepatic failure value was measured for CN(C)c1ccc(O)c2c1C[C@H]1C[C@H]3[C@H](N(C)C)C(O)=C(C(N)=O)C(=O)[C@@]3(O)C(O)=C1C2=O [MINOCYCLINE] ?
Output: 1

----------
The following compounds each carry a recorded HepSE_liver function tests abnormal for Hepatotoxicity.
Reply: number alone, nothing else.

Input: Give recorded HepSE_liver function tests abnormal with Hepatotoxicity for the following compound: Clc1ccc(C(c2ccccc2Cl)C(Cl)Cl)cc1 (stereo not given)
Output: 0

Input: Similarly, CC(C)NCC(O)c1cc(O)cc(O)c1 (stereo not given) ?
Output: 0

Input: Similarly, Cc1onc(-c2c(Cl)cccc2Cl)c1C(=O)N[C@@H]1C(=O)N2[C@@H]1SC(C)(C)[C@@H]2C(=O)O ?
Output: 1

Input: Similarly, [Mg] ?
Output: 0

Input: Similarly, COc1cc(NCc2ccc3nc(N)nc(N)c3c2C)cc(OC)c1OC [TRIMETREXATE] ?
Output: 0

----------
The following compounds each carry a recorded HepSE_hepatitis for Hepatotoxicity.
Reply: number alone, nothing else.

Sample records with HepSE_hepatitis:
compound: CCOC(=O)[C@H](CCc1ccccc1)N[C@@H](C)C(=O)N1Cc2ccccc2C[C@H]1C(=O)O
HepSE_hepatitis: 1
--
compound: CCN(CC)C(C)C(=O)c1ccccc1 (configuration not stated)
HepSE_hepatitis: 0
--
compound: O=P(O)(O)C(Cl)(Cl)P(=O)(O)O
HepSE_hepatitis: 0
--
compound: Cc1c(O)cccc1C(=O)N[C@@H](CSc1ccccc1)[C@H](O)CN1C[C@H]2CCCC[C@H]2C[C@H]1C(=O)NC(C)(C)C
HepSE_hepatitis: 1

Input: Give recorded HepSE_hepatitis with Hepatotoxicity for the following compound: C[N+]1(C)CCCC(OC(=O)C(O)(c2ccccc2)c2ccccc2)C1.[Br-] (configuration not stated) [MEPENZOLATE BROMIDE]
Output: 0

Input: Similarly, C[C@@H]1C[C@H]2[C@@H]3C[C@H](F)C4=CC(=O)C=C[C@]4(C)[C@@]3(F)[C@@H](O)C[C@]2(C)[C@@]1(O)C(=O)CO ?
Output: 0

Input: Similarly, Cc1nnc2n1-c1ccc(Cl)cc1C(c1ccccc1)=NC2 ?
Output: 1
